Tested on: IGROV1 ovarian
test-summary: NCI-60 one-dose screen, 48 h
details: 10 µM
This is part of a sample that, as a whole, favours compounds with a hit. Of some 83,000 tested, about 20% had one in any assay. Calls of active or inactive are those of the source. Rule for the calls: active = growth percent below 10; inactive = the rest.
Possible outcomes: True (active), False (inactive)

> print(dat)
                                    compound  category.label
 1  CCCCSc1nc(Nc2ccc(/C(C)=N/NC(N)=S)cc2)c(C#N)c(-c2ccc(OC)cc2)n1           False
 2  CN1CCCN(Cc2ccc(C(=O)Nc3cccc(Nc4ccc5c(O)cccc5n4)c3)cc2C(F)(F)F)CC1            True
 3  Cc1cccc2cc(-c3cc(-c4ccccc4)nc(=O)[nH]3)c(Cl)nc12           False
 4  O=C(c1ccc(O)cc1)C1[C@H](c2ccccc2Br)[C@@H](c2ccccc2)NC12C(=O)Nc1ccc(Br)cc12 (stereo partly drawn)           False
 5  CONC[C@]1(C)C=C2C(=O)[C@](C)(O)C3(CC3)C(C)=C2[C@H]1O            True
 6  O=C(Cc1ccc2c(c1)CN(C1CCC(=O)NC1=O)C2=O)NCc1cccc2ccccc12 (stereo not drawn)            True
 7  O=C(CSc1nnc(-c2c[nH]c3ccccc23)n1-c1ccccc1)Nc1ccc(C(=O)/C=C/c2ccc(Br)cc2)cc1           False
 8  O=C(CSc1nnc(-c2c[nH]c3ccccc23)n1-c1ccccc1)Nc1ccc(C(=O)/C=C/c2ccccc2Cl)cc1           False
 9  CCCn1c(=O)c2[nH]c(-c3ccc(OCc4nc5ccc(C)cc5[nH]4)cc3)nc2n(CCC)c1=O           False
10  COc1ccc(OC)c(/C=N/NC(=O)c2ccc3nc(-c4ccc(Cl)cc4)[nH]c3c2)c1           False
11  Cc1ccc2nc(-c3ccc(-c4nnc(SCC(=O)Nc5ccc(Br)cc5)o4)cc3)[nH]c2c1           False
12  COC(=O)CC1CC1C1Cc2c(nc(N(C)S(C)(=O)=O)nc2C(C)C)-c2ccc(F)cc21 (stereo not drawn)           False
13  COc1ccc2nc(Cl)c(-c3cc(-c4ccccc4)nc(N)n3)cc2c1           False
14  NS(=O)(=O)c1ccc(NC(=O)CSc2ccc(-c3ccc(Cl)cc3)nn2)c(Br)c1           False
15  O=C(NO)c1ccc(Cn2ccc3c(NCc4ccccc4)ncnc32)cc1            True
16  NS(=O)(=O)c1ccc(NC(=O)CSc2ccc(-c3ccccc3)nn2)c(Br)c1           False
17  O=c1[nH][nH]c(Nc2ccccc2)c1N=Nc1ccc(F)cc1           False
18  Cc1cc(=O)oc2cc(OCCCCOc3ccc(/C=C/C(=O)Nc4ccccc4[N+](=O)[O-])cc3)ccc12           False
19  COc1ccc2c(c1)N=C(C(=O)O)/C2=C/c1sc(Nc2ccc(O)cc2)nc1O           False
20  O=C(NCCCCC(c1ccc(F)cc1)c1ccc(F)cc1)NCCCc1cccnc1           False
21           Cc1ccc(C(C)C)cc1NC(=O)c1ccccc1O           False
22  Cc1ccc(C(=O)Nc2ccc(-n3c(C)nc4c(cnn4-c4ccccc4)c3=O)cc2)cc1           False
23  COC[C@@H](CC(C)C)N=C1NC(=O)/C(=C/c2ccc3ncsc3c2)N1            True
24           O=C(Nc1nc2ccccc2s1)c1ccc(Br)cc1           False
25  N#Cc1ccc(NC(=O)CSc2ccc(-c3ccc(Br)cc3)nn2)cc1           False
26  N#Cc1c(NC(=O)c2ccc(C(F)(F)F)c(Cl)c2)sc2c1CCC(=O)C2            True
27  CN1C/C(=C\c2ccc(O)cc2O)c2[o+]c3cc(O)ccc3cc2C1           False
28  Clc1ccc2c(N/N=C/c3c[nH]c4ccc(Br)cc34)ccnc2c1            True
29          Cc1cc2nc3c4ccccc4n(CCO)c3nc2cc1C           False
30  Cc1cc(=O)oc2cc(OCCCCOc3ccc(/C=C/C(=O)Nc4ccc(F)c(Cl)c4)cc3)ccc12           False
31  C#Cc1ccc(S(=O)(=O)Nc2cccc(-c3csc(NC(C)=O)n3)c2)cc1           False
32  O=c1oc2ccc(-c3ccc(F)cc3F)cc2c(=O)n1-c1ccc(Cl)c(C(F)(F)F)c1           False
33  O=C1Nc2ccc(Cl)cc2/C1=C/c1ccc(OCc2ccccn2)cc1           False
34  COc1ccc(-c2ccc(/C=N/NC(=O)c3[nH]c4ccc(Br)cc4c3-c3ccccc3)o2)cc1           False
35   Nc1nc(-c2ccccc2)cc(-c2cc3ccccc3nc2Cl)n1           False
36  CN1CCN(Cc2ccc(NC(=O)c3cncc(C#Cc4cnc5ccc(N[C@H]6CCOC6)nn45)c3)cc2C(F)(F)F)CC1            True
37  CN1CCN(c2ccc(Nc3nc(N4CCN(S(=O)(=O)c5ccc(F)cc5)CC4)c4sccc4n3)cc2)CC1            True
38  O=C(Nc1ccc(Cl)c(C(F)(F)F)c1)c1cncc(C#Cc2cnc3ccc(N4CCOCC4)nn23)c1            True
